# System: RARa:RXR (NR concentration 270 nM, RXRa partner concentration 90 nM)
# PROCEDURE TEXT: PBM binding z-score (relative to random genomic background probes); higher = stronger binding; sequences stand for … in GC…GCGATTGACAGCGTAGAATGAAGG
QUANTITY KIND: PBM binding z-score

- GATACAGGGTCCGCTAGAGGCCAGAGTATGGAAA: -0.782

Batch: PBM binding z-score for all items listed.
1. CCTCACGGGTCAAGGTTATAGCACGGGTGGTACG
2. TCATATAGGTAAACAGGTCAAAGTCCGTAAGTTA
3. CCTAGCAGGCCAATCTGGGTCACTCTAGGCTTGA
4. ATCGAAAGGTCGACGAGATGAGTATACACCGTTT
5. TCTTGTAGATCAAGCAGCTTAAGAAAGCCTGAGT
6. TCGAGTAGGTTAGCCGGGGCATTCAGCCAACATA

Completion:
3.73
3.52
1.17
2.77
-0.209
0.484

Batch: PBM binding z-score for all items listed.
1. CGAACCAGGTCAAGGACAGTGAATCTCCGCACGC
2. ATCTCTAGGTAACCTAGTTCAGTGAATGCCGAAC
3. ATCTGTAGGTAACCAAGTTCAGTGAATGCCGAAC
4. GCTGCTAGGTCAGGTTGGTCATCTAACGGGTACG
5. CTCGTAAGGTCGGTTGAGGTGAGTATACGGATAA

Completion:
1: 3; 2: 0.692; 3: 0.813; 4: 1.02; 5: 1.82

###

# Test system: LXRa homodimer (NR concentration 270 nM)
# PROCEDURE TEXT: PBM binding z-score (relative to random genomic background probes); higher = stronger binding; sequences stand for … in GC…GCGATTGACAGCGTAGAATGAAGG
Hi there, I'd appreciate the recorded PBM binding z-score for every entry that follows.

Below, 5 sequences whose answers are already recorded.
* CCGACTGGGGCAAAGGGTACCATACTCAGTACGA | -0.41
* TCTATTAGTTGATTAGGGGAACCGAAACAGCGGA | 0.585
* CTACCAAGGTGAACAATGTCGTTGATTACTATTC | 0.0434
* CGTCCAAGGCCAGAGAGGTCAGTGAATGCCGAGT | 0.491
* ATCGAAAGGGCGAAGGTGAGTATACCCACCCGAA | -0.538

Batch: PBM binding z-score for all items listed.
1. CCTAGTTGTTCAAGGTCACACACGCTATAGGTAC
2. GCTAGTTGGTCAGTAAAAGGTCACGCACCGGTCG
3. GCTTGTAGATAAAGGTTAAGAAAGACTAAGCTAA
4. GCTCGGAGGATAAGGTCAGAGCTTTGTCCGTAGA
5. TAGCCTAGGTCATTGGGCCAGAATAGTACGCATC
6. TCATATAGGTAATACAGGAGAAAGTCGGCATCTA
7. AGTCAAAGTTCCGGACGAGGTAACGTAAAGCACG
8. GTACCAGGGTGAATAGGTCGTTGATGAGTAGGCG

Completion:
4.85
4.69
0.00551
-0.483
0.524
0.161
-0.166
-0.254

Batch: PBM binding z-score for all items listed.
1. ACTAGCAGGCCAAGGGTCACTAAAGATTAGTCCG
2. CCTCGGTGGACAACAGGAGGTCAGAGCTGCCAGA
3. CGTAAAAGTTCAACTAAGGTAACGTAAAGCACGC

Completion:
1. -0.00755
2. 1.76
3. 4.08

Batch: PBM binding z-score for all items listed.
1. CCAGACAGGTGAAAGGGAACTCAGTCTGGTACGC
2. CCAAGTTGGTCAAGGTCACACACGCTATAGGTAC
3. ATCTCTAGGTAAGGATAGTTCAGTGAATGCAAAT
4. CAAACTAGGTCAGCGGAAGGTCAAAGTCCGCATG

Completion:
1. -0.366
2. 1.98
3. 0.613
4. 3.95

Batch: PBM binding z-score for all items listed.
1. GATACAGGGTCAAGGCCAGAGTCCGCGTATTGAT
2. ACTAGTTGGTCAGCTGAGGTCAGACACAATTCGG
3. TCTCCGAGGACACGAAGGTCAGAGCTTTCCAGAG
4. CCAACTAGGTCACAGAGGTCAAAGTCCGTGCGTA
5. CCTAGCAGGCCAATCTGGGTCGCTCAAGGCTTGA

Completion:
[-0.217, 1.19, 0.15, 7.62, -0.942]

Prompt: Any idea what its PBM binding z-score is? The sequence is `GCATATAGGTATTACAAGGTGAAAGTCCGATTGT`
Completion: 0.246

###

# System: PPARg DBDmut IVT, anti-PPARg (DBD mutation: PPARg1 K132A/R137A, NR concentration 270 nM)
# PROCEDURE TEXT: PBM binding z-score (relative to random genomic background probes); higher = stronger binding; sequences stand for … in GC…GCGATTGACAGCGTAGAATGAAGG
Label Condition met when PBM binding z-score is at or above 0.02; otherwise label Condition not met.

• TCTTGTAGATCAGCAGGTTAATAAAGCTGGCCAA = Condition met
• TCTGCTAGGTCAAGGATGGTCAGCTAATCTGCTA = Condition met

Prompt: Is the recorded value of PBM binding z-score equal to or greater than 0.02 for this sequence? `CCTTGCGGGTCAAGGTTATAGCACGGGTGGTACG`
Completion: Condition not met

Prompt: Is the recorded value of PBM binding z-score equal to or greater than 0.02 for this sequence? `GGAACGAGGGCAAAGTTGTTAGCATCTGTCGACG`
Completion: Condition not met

Prompt: Is the recorded value of PBM binding z-score equal to or greater than 0.02 for this sequence? `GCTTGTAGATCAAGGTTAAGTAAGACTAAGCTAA`
Completion: Condition met

Prompt: Is the recorded value of PBM binding z-score equal to or greater than 0.02 for this sequence? `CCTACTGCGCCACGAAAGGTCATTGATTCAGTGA`
Completion: Condition met

Prompt: Is the recorded value of PBM binding z-score equal to or greater than 0.02 for this sequence? `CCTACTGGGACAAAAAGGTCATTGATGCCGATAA`
Completion: Condition not met

Prompt: Is the recorded value of PBM binding z-score equal to or greater than 0.02 for this sequence? `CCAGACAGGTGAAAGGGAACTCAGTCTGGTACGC`
Completion: Condition not met

Prompt: Is the recorded value of PBM binding z-score equal to or greater than 0.02 for this sequence? `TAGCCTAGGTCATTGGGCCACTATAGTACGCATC`
Completion: Condition not met

Prompt: Is the recorded value of PBM binding z-score equal to or greater than 0.02 for this sequence? `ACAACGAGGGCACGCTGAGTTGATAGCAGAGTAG`
Completion: Condition met

Prompt: Is the recorded value of PBM binding z-score equal to or greater than 0.02 for this sequence? `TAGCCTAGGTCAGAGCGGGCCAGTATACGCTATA`
Completion: Condition not met

Prompt: Is the recorded value of PBM binding z-score equal to or greater than 0.02 for this sequence? `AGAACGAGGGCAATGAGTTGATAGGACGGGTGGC`
Completion: Condition met

###

# System: RARg:RXRa (NR concentration 270 nM, RXRa partner concentration 90 nM)
# PROCEDURE TEXT: PBM binding z-score (relative to random genomic background probes); higher = stronger binding; sequences stand for … in GC…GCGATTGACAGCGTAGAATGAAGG
Label class 1 when PBM binding z-score is at or above 2; otherwise label class 0.

Example entries begin here.
• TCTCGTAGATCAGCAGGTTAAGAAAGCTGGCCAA = class 0
• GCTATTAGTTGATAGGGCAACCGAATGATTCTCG = class 0
• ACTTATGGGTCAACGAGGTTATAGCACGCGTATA = class 1
• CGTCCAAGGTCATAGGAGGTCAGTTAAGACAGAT = class 1
• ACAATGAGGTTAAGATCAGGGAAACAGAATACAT = class 1

We now examine a further sequence.
Prompt: Is the recorded value of PBM binding z-score equal to or greater than 2 for this sequence? `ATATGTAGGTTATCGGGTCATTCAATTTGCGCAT`
Completion: class 1

###

# Tested on: PPARg:RXRa 270nM:90nM, anti-RXR (NR concentration 270 nM, RXRa partner concentration 90 nM)
# PROCEDURE TEXT: PBM binding z-score (relative to random genomic background probes); higher = stronger binding; sequences stand for … in GC…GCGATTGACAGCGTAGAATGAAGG
QUANTITY KIND: PBM binding z-score
One number for each entry.

Below, 3 sequences whose answers are already recorded.
• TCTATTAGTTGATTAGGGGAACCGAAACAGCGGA = 2.05
• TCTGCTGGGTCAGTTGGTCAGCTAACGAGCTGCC = 1.6
• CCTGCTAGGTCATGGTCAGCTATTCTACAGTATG = 2.63

Batch: PBM binding z-score for all items listed.
1. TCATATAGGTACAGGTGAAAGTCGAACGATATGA
2. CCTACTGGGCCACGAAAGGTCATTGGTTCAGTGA
3. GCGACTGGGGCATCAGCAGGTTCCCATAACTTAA

Completion:
[2.41, 4.86, 0.35]
